tested on: Mus musculus; assay: Anticonvulsant activity in po dosed mouse assessed as blockade of supramaximal electroshock-induced […] seizure; assay type: functional
Calls of active or inactive are those of the source. No rule for the calls is given here.
Valid outcomes are listed here; reply with one: active, inactive

Recorded test call requested for `CN1CC(C)(C)C/C1=N\C(=O)Nc1ccccc1`
inactive

Please state the recorded outcome for this compound: `O=C(/N=C1\CCCN1Cc1ccccc1)Nc1cccc(Cl)c1`
inactive

Tell me the recorded outcome of this test for Cc1cccc(C)c1NC(=O)/N=C1\C(C)C(c2ccccc2)CN1C (configuration not stated) .
inactive

Recorded test call requested for `CN1CCC/C1=N\C(=O)Nc1ccc(O)cc1`
inactive

// return assay outcome for CN1CC(c2ccccc2)C/C1=N\C(=O)Nc1c(Cl)cccc1Cl (configuration not stated)
inactive

Recorded test outcome, item `Cc1ccc(NC(=O)/N=C2\CCCN2C)cc1`
inactive

Could you kindly confirm the outcome this assay logged for `CN1CCC/C1=N\C(=O)Nc1ccc(F)cc1` ?
inactive

# outcome recorded in this test, key = `CN1CCC/C1=N\C(=O)Nc1ccc(S(C)(=O)=O)cc1`
inactive

State the result this test recorded for `O=C(/N=C1\CCCN1Cc1ccccc1)Nc1cccc(C(F)(F)F)c1` .
inactive

Record lookup: outcome of this test for `CN1CCC/C1=N\C(=O)Nc1ccc(C(C)(C)C)cc1` ?
inactive

Per the assay record, what outcome was assigned to `CCOc1ccccc1NC(=O)/N=C1\CCCN1C` ?
active

Per the assay record, what outcome was assigned to `CN1CCCC/C1=N\C(=O)Nc1ccc(C(F)(F)F)cc1` ?
inactive
